All values here come from paper PMC4694766.

molecular target: cNLRX1 (wild type) (Homo sapiens, UniProt Q86UT6); construct: cNLRX1 (AA 667–970) was cloned into pPinkHC-Alpha-SDK; polyhistidine (6x); made in house; host or cells: Pichia pastoris (Strain 4: ade2, prb1, pep4); assay: SPR (Biacore T200) direct binding to immobilized cNLRX1 wild type
Sequence (Q86UT6 667-970): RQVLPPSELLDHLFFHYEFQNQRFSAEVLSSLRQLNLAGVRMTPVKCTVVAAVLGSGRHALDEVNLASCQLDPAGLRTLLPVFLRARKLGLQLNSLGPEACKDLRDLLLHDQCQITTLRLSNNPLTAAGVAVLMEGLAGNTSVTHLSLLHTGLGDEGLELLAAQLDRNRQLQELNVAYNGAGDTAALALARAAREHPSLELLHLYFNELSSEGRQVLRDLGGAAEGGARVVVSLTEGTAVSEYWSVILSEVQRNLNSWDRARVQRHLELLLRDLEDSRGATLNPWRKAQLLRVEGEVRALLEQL
pKd: −log10 of the molar value.
measured-property: pKd

INSERT INTO results (chemical_string, numeric_readout) VALUES
  ('CCCC\C=C/C=C/C=C\CCCCCCCC(=O)O', 4.84),
  ('CCCCC=CC=CC=CCCCCCCCC(=O)O', 4.88);

====

target: cNLRX1 (wild type) (Homo sapiens, UniProt Q86UT6); construct: cNLRX1 (AA 667–970) was cloned into pPinkHC-Alpha-SDK; polyhistidine (6x); made in house; host or cells: Pichia pastoris (Strain 4: ade2, prb1, pep4); experiment: SPR (Biacore T200) direct binding to immobilized cNLRX1 wild type; conditions: SPR, cNLRX1 WT; read-out: equilibrium constant of dissociation (KD)
measured-property: pKd
The scale used: pKd is minus the common logarithm of the concentration in molar units.

Asked: Give reported pKd for CC/C=C\C/C=C\C/C=C\C/C=C\C/C=C\C/C=C\CCC(=O)O [DHA, docosahexaenoic acid] (cNLRX1 (wild type) (Homo sapiens, UniProt Q86UT6))
Given back: 5.64
